From: the supplement of paper PMC4862054

- Tested on: MDA-MB-231
- PROTOCOL SUMMARY: drug sensitivity score (DSS), CellTiter-Glo (DSS (AUC-based score)); higher = stronger drug effect (viability inhibition or cytotoxicity); extreme values may be limits of the assay
- CONDITION INFO: incubation time: 72 h
MEASURED METRIC: drug sensitivity score
Answer as a number with no unit attached.

Challenge: // drug sensitivity score lookup, key: Nc1ccccc1NC(=O)c1ccc(CNc2nccc(-c3cccnc3)n2)cc1 [Mocetinostat]
Response given: 6.07

Challenge: Moving on to the next compound: C[C@]12O[C@H](C[C@]1(O)CO)n1c3ccccc3c3c4c(c5c6ccccc6n2c5c31)CNC4=O [Lestaurtinib]
Response given: 2.14

Challenge: Moving on to the next compound: O=C(Nc1c[nH]nc1-c1nc2ccc(CN3CCOCC3)cc2[nH]1)NC1CC1 [AT9283]
Response given: 6.11

Challenge: Moving on to the next compound: c1cc(CN2CCCNCCNCCCNCC2)ccc1CN1CCCNCCNCCCNCC1 [Plerixafor]
Response given: 0

Challenge: Moving on to the next compound: Cc1cccc(-c2nn3c(c2-c2ccnc4ccc(C(N)=O)cc24)CCC3)n1 [Galunisertib]
Response given: 0

Challenge: Moving on to the next compound: CCCCC/C=C/C=C1/C(=O)C=C[C@@H]1C/C=C\CCCC(=O)O [15D-PGJ2]
Response given: 0

Challenge: Moving on to the next compound: CCN(CC)CCNC(=O)c1c(C)[nH]c(/C=C2\C(=O)Nc3ccc(F)cc32)c1C [Sunitinib]
Response given: 0

Challenge: Moving on to the next compound: O=C(CCBr)N1CCN(C(=O)CCBr)CC1 [Pipobroman]
Response given: 0

----------
- System: CAL-85-1
- PROTOCOL SUMMARY: normalised viability (% of control), CellTiter-Blue; higher = more viable cells (about 100 = DMSO control)
- CONDITION INFO: 10 nM; incubation time: 72 h
MEASURED METRIC: normalised viability (%)
Respond numerically; units are % and should not be typed.

Challenge: // normalised viability lookup, key: Cc1c(CN2CCN(C(=O)[C@H](C)O)CC2)sc2c(N3CCOCC3)nc(-c3cnc(N)nc3)nc12 [GDC-0980]
Response given: 100

Challenge: Moving on to the next molecule: CO[C@@H](C(=O)N1Cc2[nH]nc(NC(=O)c3ccc(N4CCN(C)CC4)cc3)c2C1)c1ccccc1 [Danusertib]
Response given: 93.6

Challenge: Moving on to the next molecule: O=C(CCBr)N1CCN(C(=O)CCBr)CC1 [Pipobroman]
Response given: 110

Challenge: Moving on to the next molecule: O=C(Nc1c[nH]nc1-c1nc2ccc(CN3CCOCC3)cc2[nH]1)NC1CC1 [AT9283]
Response given: 85.7

----------
- Test system: Hs578T
- CONDITION INFO: 72 h
MEASURED METRIC: EC50, CellTox Green (nM)
Respond numerically; units are nM and should not be typed.

Challenge: // EC50, CellTox Green lookup, key: CO[C@@H](C(=O)N1Cc2[nH]nc(NC(=O)c3ccc(N4CCN(C)CC4)cc3)c2C1)c1ccccc1 [Danusertib]
Response given: 477

Challenge: Moving on to the next compound: Cc1nc(Nc2ncc(C(=O)Nc3c(C)cccc3Cl)s2)cc(N2CCN(CCO)CC2)n1 [Dasatinib]
Response given: 277

Challenge: Moving on to the next compound: Cn1cc(CNCC2CCN(c3ncc(C(=O)NO)cn3)CC2)c2ccccc21 [Quisinostat]
Response given: 60.3

Challenge: Moving on to the next compound: Nc1ccccc1NC(=O)c1ccc(CNc2nccc(-c3cccnc3)n2)cc1 [Mocetinostat]
Response given: 629

----------
- System: BT-549
- PROTOCOL SUMMARY: normalised response (% of control), CellTox Green; higher = less cell death (100 = DMSO, 0 = benzethonium chloride kill control)
- CONDITION INFO: incubation time: 72 h
MEASURED METRIC: normalised response (%)
Respond numerically; units are % and should not be typed.

Challenge: // normalised response lookup, key: Cc1c(Cn2c(C)nc3c(C(=O)O)cc(N4CCOCC4)cc32)cccc1C(F)(F)F (100 nM)
Response given: 111

Challenge: Moving on to the next compound: COc1cc(CCc2cc(NC(=O)c3ccc(N4CC(C)NC(C)C4)cc3)n[nH]2)cc(OC)c1 (stereo not given) [AZD4547] (100 nM)
Response given: 118

Challenge: Moving on to the next compound: C[C@]12C=CC(=O)C=C1CC[C@@H]1[C@@H]2[C@@H](O)C[C@@]2(C)[C@H]1CC[C@]2(O)C(=O)CO [Prednisolone] (1000 nM)
Response given: 116

Challenge: Moving on to the next compound: Cc1c(CN2CCN(C(=O)[C@H](C)O)CC2)sc2c(N3CCOCC3)nc(-c3cnc(N)nc3)nc12 [GDC-0980] (100 nM)
Response given: 106

Challenge: Moving on to the next compound: O=C1c2c(O)ccc(O)c2C(=O)c2c(NCCNCCO)ccc(NCCNCCO)c21 [Mitoxantrone] (1000 nM)
Response given: 108

Challenge: Moving on to the next compound: CS(=O)(=O)N1CCN(Cc2cc3nc(-c4cccc5[nH]ncc45)nc(N4CCOCC4)c3s2)CC1 [Pictilisib] (100 nM)
Response given: 101

Challenge: Moving on to the next compound: CC(=O)OC[C@H]1O[C@@H]([S-])[C@H](OC(C)=O)[C@@H](OC(C)=O)[C@@H]1OC(C)=O.CCP(CC)CC.[Au+] [Auranofin] (2500 nM)
Response given: -11.2

Challenge: Moving on to the next compound: O=S(=O)(c1cccc2cnccc12)N1CCCNCC1 [Fasudil] (5000 nM)
Response given: 99.9

Challenge: Moving on to the next compound: COc1nc(N)nc2c1ncn2[C@@H]1O[C@H](CO)[C@@H](O)[C@@H]1O [Nelarabine] (100 nM)
Response given: 98.7

Challenge: Moving on to the next compound: CC/C(=C(\c1ccc(O)cc1)c1ccc(OCCN(C)C)cc1)c1ccccc1 [4-hydroxytamoxifen] (10000 nM)
Response given: 68

Challenge: Moving on to the next compound: Cc1nc(Nc2ncc(C(=O)Nc3c(C)cccc3Cl)s2)cc(N2CCN(CCO)CC2)n1 [Dasatinib] (10 nM)
Response given: 111

Challenge: Moving on to the next compound: c1cc(CN2CCCNCCNCCCNCC2)ccc1CN1CCCNCCNCCCNCC1 [Plerixafor] (10000 nM)
Response given: 52.3

Challenge: Moving on to the next compound: C[C@]12O[C@H](C[C@]1(O)CO)n1c3ccccc3c3c4c(c5c6ccccc6n2c5c31)CNC4=O [Lestaurtinib] (100 nM)
Response given: 99.7

Challenge: Moving on to the next compound: COc1cc(CCc2cc(NC(=O)c3ccc(N4CC(C)NC(C)C4)cc3)n[nH]2)cc(OC)c1 (stereo not given) [AZD4547] (1000 nM)
Response given: 90

Challenge: Moving on to the next compound: CCCCC/C=C/C=C1/C(=O)C=C[C@@H]1C/C=C\CCCC(=O)O [15D-PGJ2] (80 nM)
Response given: 105

----------
- Test system: HCC1143
- PROTOCOL SUMMARY: drug sensitivity score (DSS), CellTiter-Glo (DSS (AUC-based score)); higher = stronger drug effect (viability inhibition or cytotoxicity); extreme values may be limits of the assay
- CONDITION INFO: incubation time: 72 h
Please provide measured drug sensitivity score for the entries that follow.
Answer as a number with no unit attached.

Challenge: // drug sensitivity score lookup, key: CO[C@@H](C(=O)N1Cc2[nH]nc(NC(=O)c3ccc(N4CCN(C)CC4)cc3)c2C1)c1ccccc1 [Danusertib]
Response given: 5.41

Challenge: Moving on to the next molecule: CS(=O)(=O)N1CCN(Cc2cc3nc(-c4cccc5[nH]ncc45)nc(N4CCOCC4)c3s2)CC1 [Pictilisib]
Response given: 7.14

Challenge: Moving on to the next molecule: `COc1ccc(-c2cc3c(C)nc(N)nc3n([C@H]3CC[C@H](OCCO)CC3)c2=O)cn1`
Response given: 17.2

----------
- System: MDA-MB-453
- PROTOCOL SUMMARY: normalised viability (% of control), CellTiter-Blue; higher = more viable cells (about 100 = DMSO control)
- CONDITION INFO: incubation time: 72 h
MEASURED METRIC: normalised viability (%)
Respond numerically; units are % and should not be typed.

Challenge: // normalised viability lookup, key: O=C1c2c(O)ccc(O)c2C(=O)c2c(NCCNCCO)ccc(NCCNCCO)c21 [Mitoxantrone] (1000 nM)
Response given: 31

Challenge: Moving on to the next compound: CO[C@@H](C(=O)N1Cc2[nH]nc(NC(=O)c3ccc(N4CCN(C)CC4)cc3)c2C1)c1ccccc1 [Danusertib] (10000 nM)
Response given: 31.3

Challenge: Moving on to the next compound: COc1ccc(-c2cc3c(C)nc(N)nc3n([C@H]3CC[C@H](OCCO)CC3)c2=O)cn1 (10000 nM)
Response given: 2.5

Challenge: Moving on to the next compound: CCC/C=C/C=C/C(=O)O[C@H]1/C(=C/C(=O)OC)C[C@H]2C[C@H]([C@@H](C)O)OC(=O)C[C@H](O)C[C@@H]3C[C@H](OC(C)=O)C(C)(C)[C@](O)(C[C@@H]4C/C(=C/C(=O)OC)C[C@H](/C=C/C(C)(C)[C@]1(O)O2)O4)O3 [Bryostatin 1] (100 nM)
Response given: 102

Challenge: Moving on to the next compound: O=S(=O)(c1cccc2cnccc12)N1CCCNCC1 [Fasudil] (10000 nM)
Response given: 57.8
